// data source = patent US20240199598A1

Assay: Solubility of compound of Chemical Formula 1 in various solvents
Format: physicochemical
Details: organic solvent or mixture; Chloroform (CHCl3), 50° C.; read-out: Solubility
PROPERTY LABEL: solubility (µg/mL)
# output: bare number, implied unit µg/mL

[ask] Need solubility, item O=S1(=O)CCN(Cc2cc(NC3CCOCC3)c3[nH]c(-c4ccccc4)cc3c2)CC1 [compound of Chemical Formula 1]
[reply] 4620

====

Assay: Physicochemical stability test of free form and 5 salts (60° C., 40° C./75% humidity, light)
Conditions: 40° C./75% RH, 1 w
Measured Assay, listed per entry for reference.
Response body: numeric value in %, unit text excluded.

Answered cases to consult:
[ask] Quick one: Assay of O=C(O)/C=C\C(=O)O.O=S1(=O)CCN(Cc2cc(NC3CCOCC3)c3[nH]c(-c4ccccc4)cc3c2)CC1 [Maleate] ?
[reply] 108.85

[ask] Looking for the measured Assay of Cl.O=S1(=O)CCN(Cc2cc(NC3CCOCC3)c3[nH]c(-c4ccccc4)cc3c2)CC1 [Hydrochloride] , can you help?
[reply] 109.18

[ask] Value lookup for Assay; key = O=S1(=O)CCN(Cc2cc(NC3CCOCC3)c3[nH]c(-c4ccccc4)cc3c2)CC1 [Sulfate]
[reply] 109.86

[ask] Given the compound CS(=O)(=O)O.O=S1(=O)CCN(Cc2cc(NC3CCOCC3)c3[nH]c(-c4ccccc4)cc3c2)CC1 [Mesylate] , what is its reported Assay?
[reply] 101.35

Continuing:
[ask] Quick one: Assay for Cc1ccc(S(=O)(=O)O)cc1.O=S1(=O)CCN(Cc2cc(NC3CCOCC3)c3[nH]c(-c4ccccc4)cc3c2)CC1 [Tosylate] ?
[reply] 107.73

====

Assay: Solubility test of sulfate (Crystalline form III) in various solvents
Assay type: physicochemical
Conditions: aqueous with cosolvent or surfactant or cyclodextrin, thermodynamic from solid; Acetone-H2O (1:2), 25° C.; read-out: Solubility
PROPERTY LABEL: solubility

[ask] Query: solubility; subject: O=S1(=O)CCN(Cc2cc(NC3CCOCC3)c3[nH]c(-c4ccccc4)cc3c2)CC1 [Sulfate]
[reply] 9 to 19 mg/mL

====

Assay: Solubility test of sulfate (Crystalline form III) in various solvents
Type: physicochemical
Conditions: organic solvent or mixture, thermodynamic from solid; DMSO, 50° C.; read-out: Solubility
PROPERTY LABEL: solubility

[ask] # input molecule: O=S1(=O)CCN(Cc2cc(NC3CCOCC3)c3[nH]c(-c4ccccc4)cc3c2)CC1 [Sulfate] ; wanted: its solubility
[reply] 301 to 602 mg/mL

====

Experiment: Physicochemical stability test of free form and 5 salts (60° C., 40° C./75% humidity, light)
Conditions: 40° C./75% RH, 1 w
Entries and their Purity change values follow.
Could you give me the number in %? Just the number is fine.

Below are worked cases with known answers.
[ask] // query Purity change value for entry Cc1ccc(S(=O)(=O)O)cc1.O=S1(=O)CCN(Cc2cc(NC3CCOCC3)c3[nH]c(-c4ccccc4)cc3c2)CC1 [Tosylate]
[reply] −0.01

[ask] Item O=S1(=O)CCN(Cc2cc(NC3CCOCC3)c3[nH]c(-c4ccccc4)cc3c2)CC1 [Sulfate] has what recorded Purity change?
[reply] −0.43

[ask] Suppose we examine the compound Cl.O=S1(=O)CCN(Cc2cc(NC3CCOCC3)c3[nH]c(-c4ccccc4)cc3c2)CC1 [Hydrochloride] ; what Purity change value has been reported?
[reply] −0.55

[ask] Which Purity change value belongs to CS(=O)(=O)O.O=S1(=O)CCN(Cc2cc(NC3CCOCC3)c3[nH]c(-c4ccccc4)cc3c2)CC1 [Mesylate] ?
[reply] −3.29

From here, focus on the item given below.
[ask] Look up Purity change for this compound: O=C(O)/C=C\C(=O)O.O=S1(=O)CCN(Cc2cc(NC3CCOCC3)c3[nH]c(-c4ccccc4)cc3c2)CC1 [Maleate]
[reply] −0.77
